Taken from patent US6905854B2.

In this section we review reported Km values for a set of molecules.
test: Kinetic assay of purified DAOCS with penicillin G (standard penicillin G assay, HPLC of cephalosporin G); type: biochemical; details: for penicillin G; 20 μg purified DAOCS, 1 mM α-ketoglutarate, 30° C.; triplicate, Hanes-Woolf Plot
readout_name: Km

>  <molecule>
YH2: mutated penicillin expandase (DAOCS) with substitution H244R (protein, UniProt P18548 1-311, looked up, variant H244R) Deacetoxycephalosporin C …: MDTTVPTFSLAELQQGLHQDEFRRCLRDKGLFYLTDCGLTDTELKSAKDLVIDFFEHGSEAEKRAVTSPVPTMRRGFTGLESESTAQITNTGSYSDYSMCYSMGTADNLFPSGDFERIWTQYFDRQYTASRAVAREVLRATGTEPDGGVEAFLDCEPLLRFRYFPQVPEHRSAEEQPLRMAPHYDLSMVTLIQQTPCANGFVSLQAEVGGAFTDLPYRPDAVLVFCGAIATLVTGGQVKAPRHRVAAPRRDQIAGSSRTSSVFFLRPNADFTFSVPLARECGFDVSLDGETATFQDWIGGNYVNIRRTSKA

>  <result>
2450 µM

$$$$
>  <molecule>
YS103: mutated penicillin expandase (DAOCS) with substitution M188V (protein, UniProt P18548 1-311, looked up, variant M188V) Deacetoxycephalosporin C …: MDTTVPTFSLAELQQGLHQDEFRRCLRDKGLFYLTDCGLTDTELKSAKDLVIDFFEHGSEAEKRAVTSPVPTMRRGFTGLESESTAQITNTGSYSDYSMCYSMGTADNLFPSGDFERIWTQYFDRQYTASRAVAREVLRATGTEPDGGVEAFLDCEPLLRFRYFPQVPEHRSAEEQPLRMAPHYDLSVVTLIQQTPCANGFVSLQAEVGGAFTDLPYRPDAVLVFCGAIATLVTGGQVKAPRHHVAAPRRDQIAGSSRTSSVFFLRPNADFTFSVPLARECGFDVSLDGETATFQDWIGGNYVNIRRTSKA

>  <result>
760 µM

$$$$
>  <molecule>
YS115: mutated penicillin expandase (DAOCS) with substitution M73T (protein, UniProt P18548 1-311, looked up, variant M73T) Deacetoxycephalosporin C …: MDTTVPTFSLAELQQGLHQDEFRRCLRDKGLFYLTDCGLTDTELKSAKDLVIDFFEHGSEAEKRAVTSPVPTTRRGFTGLESESTAQITNTGSYSDYSMCYSMGTADNLFPSGDFERIWTQYFDRQYTASRAVAREVLRATGTEPDGGVEAFLDCEPLLRFRYFPQVPEHRSAEEQPLRMAPHYDLSMVTLIQQTPCANGFVSLQAEVGGAFTDLPYRPDAVLVFCGAIATLVTGGQVKAPRHHVAAPRRDQIAGSSRTSSVFFLRPNADFTFSVPLARECGFDVSLDGETATFQDWIGGNYVNIRRTSKA

>  <result>
740 µM

$$$$
>  <molecule>
YS8: mutated penicillin expandase (DAOCS) with substitution I305L (protein, UniProt P18548 1-311, looked up, variant I305L) Deacetoxycephalosporin C …: MDTTVPTFSLAELQQGLHQDEFRRCLRDKGLFYLTDCGLTDTELKSAKDLVIDFFEHGSEAEKRAVTSPVPTMRRGFTGLESESTAQITNTGSYSDYSMCYSMGTADNLFPSGDFERIWTQYFDRQYTASRAVAREVLRATGTEPDGGVEAFLDCEPLLRFRYFPQVPEHRSAEEQPLRMAPHYDLSMVTLIQQTPCANGFVSLQAEVGGAFTDLPYRPDAVLVFCGAIATLVTGGQVKAPRHHVAAPRRDQIAGSSRTSSVFFLRPNADFTFSVPLARECGFDVSLDGETATFQDWIGGNYVNLRRTSKA

>  <result>
660 µM

$$$$
>  <molecule>
YS72: mutated penicillin expandase (DAOCS) with substitution C155Y (protein, UniProt P18548 1-311, looked up, variant C155Y) Deacetoxycephalosporin C …: MDTTVPTFSLAELQQGLHQDEFRRCLRDKGLFYLTDCGLTDTELKSAKDLVIDFFEHGSEAEKRAVTSPVPTMRRGFTGLESESTAQITNTGSYSDYSMCYSMGTADNLFPSGDFERIWTQYFDRQYTASRAVAREVLRATGTEPDGGVEAFLDYEPLLRFRYFPQVPEHRSAEEQPLRMAPHYDLSMVTLIQQTPCANGFVSLQAEVGGAFTDLPYRPDAVLVFCGAIATLVTGGQVKAPRHHVAAPRRDQIAGSSRTSSVFFLRPNADFTFSVPLARECGFDVSLDGETATFQDWIGGNYVNIRRTSKA

>  <result>
1760 µM

$$$$
